- ASSAYED_TARGET: human factor VIIa (Homo sapiens, UniProt P08709)
- Construct: 50 nM human factor VIIa (BiosPacific, Emeryville, Calif.); purchased BiosPacific, Emeryville, Calif
- PROTOCOL: Inhibition of Factor VIIa hydrolysis of chromogenic substrate S2288 (Ki)
- Format: biochemical
- DETAILS: purified human factor VIIa, 0.05 M tris buffer, pH 7.6
PROPERTY_NAME: Ki values for inhibition of Serine Proteases: Factor VIIa

* CN(CC(=O)NC(CO)CCCCN)C(=O)CCc1ccccc1 (stereo not shown) [Example 61.3.1] | Inactive
* CN(CC(=O)NC(CCCN)B1OC2CC3CC(C3(C)C)C2(C)O1)C(=O)c1ccccc1Sc1ccccc1.Cl (stereo not shown) [Example 63.3.1] | inactive
* CN(CC(=O)NC(CO)CCCCNC(=O)OCc1ccccc1)C(=O)CCc1ccccc1 (stereo not shown) [Example 61.3.2] | Inactive
* CC1(C)C2CC3OB(C(CCCN)NC(=O)CN(CCc4ccccc4)C(=O)CCc4ccccc4)OC3(C)C1C2.Cl (stereo not shown) [Example 49.1.1] | inactive

====

- ASSAYED_TARGET: human factor VIIa (Homo sapiens, UniProt P08709)
- Sequence (P08709 213-466 limits assumed): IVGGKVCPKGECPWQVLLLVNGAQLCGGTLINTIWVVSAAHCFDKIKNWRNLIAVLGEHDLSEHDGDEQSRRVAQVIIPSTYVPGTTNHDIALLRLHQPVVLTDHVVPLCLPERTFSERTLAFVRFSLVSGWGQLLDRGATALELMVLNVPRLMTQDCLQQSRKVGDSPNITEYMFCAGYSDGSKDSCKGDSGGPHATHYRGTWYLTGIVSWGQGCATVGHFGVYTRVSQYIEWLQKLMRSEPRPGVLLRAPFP
- Sequence (P08709 61-212 partner limits assumed): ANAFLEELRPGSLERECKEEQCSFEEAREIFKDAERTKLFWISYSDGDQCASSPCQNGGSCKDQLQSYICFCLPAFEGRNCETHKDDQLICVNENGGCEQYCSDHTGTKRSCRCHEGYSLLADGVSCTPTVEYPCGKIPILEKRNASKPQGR
Counter-ions that a name gives are not always drawn.
PROPERTY_NAME: Ki

Recorded Ki, per entry:
* CC(C)(CN(CC(=O)NC(CCCCN)B(O)O)C(=O)CCc1ccccc1)c1ccccc1 (stereo not shown) [Example 59.1.1, HCl] | < 0.5 µM
* CN(CC(=O)NC(CCCNC(=N)N)B(O)O)C(=O)c1ccccc1Sc1ccccc1C#N (stereo not shown) [Example 75.3.1, HCl] | < 0.5 µM
* CN(CC(=O)NC(CCCCN)B1OC2CC3CC(C3(C)C)C2(C)O1)C(=O)c1ccccc1Sc1ccccc1C#N (stereo not shown) [Example 62.4.3, HCl] | < 50 µM

Let us examine a further case.
Q. Tell me the measured Ki of CC(C)(C)OC(=O)NC(CCC(=O)O)C(=O)N(CCc1ccccc1)CC(=O)NC(CCCCN)B(O)O (stereo not drawn) [Example 68.2.1, Boc-Glu-[N-(Phenethyl)-Gly]-boroLys--OH] , please.
A. < 50 µM

====

- ASSAYED_TARGET: human factor Xa (Homo sapiens, UniProt P00742)
- Construct: 0.2-0.5 nM human thrombin or human factor Xa; purchased Enzyme Research Laboratories, South Bend, Ind
- Sequence (P00742 235-488 limits assumed): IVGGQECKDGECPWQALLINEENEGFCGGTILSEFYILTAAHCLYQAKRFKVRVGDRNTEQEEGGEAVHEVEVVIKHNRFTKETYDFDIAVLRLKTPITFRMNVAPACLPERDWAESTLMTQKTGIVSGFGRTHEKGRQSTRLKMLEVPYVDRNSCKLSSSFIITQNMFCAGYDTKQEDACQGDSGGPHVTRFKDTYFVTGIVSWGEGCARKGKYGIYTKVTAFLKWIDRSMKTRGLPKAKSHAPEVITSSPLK
- Sequence (P00742 41-179 partner limits assumed): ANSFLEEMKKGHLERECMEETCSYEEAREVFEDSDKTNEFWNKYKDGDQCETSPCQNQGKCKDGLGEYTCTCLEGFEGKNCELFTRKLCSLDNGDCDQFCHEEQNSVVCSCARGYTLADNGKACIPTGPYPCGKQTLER
- PROTOCOL: Inhibition of Factor Xa hydrolysis of chromogenic substrate S2222 (Ki)
- Assay type: biochemical
- DETAILS: purified human factor Xa, 0.10 M sodium phosphate buffer, pH 7.5, read-out: Ki values for inhibition of Serine Proteases: Factor Xa
pKi: −log10 of the molar value. Counter-ions that a name gives are not always drawn.
PROPERTY_NAME: pKi

Recorded pKi, per entry:
- Cc1cc(C)cc(C(C)(C)CN(CC(=O)NC(CCCN=C(N)N)B2OC3CC4CC(C4(C)C)C3(C)O2)C(=O)CCc2ccccc2)c1 (stereo not shown) [Example 56.3.3, HCl]: > 6.30
- CC1(C)C2CC3OB(C(CCCCN)NC(=O)CN(C(=O)CCc4ccccc4)C4CC4)OC3(C)C1C2 (stereo not shown) [Example 54.4.2, HCl]: > 4.30
- CC1(C)C2CC3OB(C(CCCCN)NC(=O)CN(CCc4ccccc4C4CCCC4)C(=O)CCc4ccccc4)OC3(C)C1C2 (stereo not shown) [Example 54.3.2, HCl]: > 4.30
- CN(CC(=O)NC(CCCN)B1OC2CC3CC(C3(C)C)C2(C)O1)C(=O)c1ccccc1Sc1ccccc1.Cl (stereo not shown) [Example 63.3.1, HCl]: > 4.30
- Cc1cccc(CCN(CC(=O)NC(CCCCN)B(O)O)C(=O)CCc2ccccc2)c1 (stereo not shown) [Example 52.1.2, hydrochloride salt]: > 6.30
- CC(C)(CN(CC(=O)NC(CCCCN)B1OC2CC3CC(C3(C)C)C2(C)O1)C(=O)CCc1ccccc1)c1ccccc1 (stereo not shown) [Example 54.3.3, HCl]: > 4.30

Let us examine a further case.
Q. Tell me the measured pKi of CN(CC(=O)NC(CCCCN=[N+]=[N-])B1OC2CC3CC(C3(C)C)C2(C)O1)C(=O)c1ccccc1Sc1ccccc1C#N (stereo not shown) , please.
A. > 4.30

Sourced from patent US6060462A
